Origin of the recorded values: patent US20190185461A1

Molecular target: human muscarine receptor M3 (hM3) (Homo sapiens, UniProt P20309)
Construct: host or cells: CHO cells
Sequence (P20309 whole entry): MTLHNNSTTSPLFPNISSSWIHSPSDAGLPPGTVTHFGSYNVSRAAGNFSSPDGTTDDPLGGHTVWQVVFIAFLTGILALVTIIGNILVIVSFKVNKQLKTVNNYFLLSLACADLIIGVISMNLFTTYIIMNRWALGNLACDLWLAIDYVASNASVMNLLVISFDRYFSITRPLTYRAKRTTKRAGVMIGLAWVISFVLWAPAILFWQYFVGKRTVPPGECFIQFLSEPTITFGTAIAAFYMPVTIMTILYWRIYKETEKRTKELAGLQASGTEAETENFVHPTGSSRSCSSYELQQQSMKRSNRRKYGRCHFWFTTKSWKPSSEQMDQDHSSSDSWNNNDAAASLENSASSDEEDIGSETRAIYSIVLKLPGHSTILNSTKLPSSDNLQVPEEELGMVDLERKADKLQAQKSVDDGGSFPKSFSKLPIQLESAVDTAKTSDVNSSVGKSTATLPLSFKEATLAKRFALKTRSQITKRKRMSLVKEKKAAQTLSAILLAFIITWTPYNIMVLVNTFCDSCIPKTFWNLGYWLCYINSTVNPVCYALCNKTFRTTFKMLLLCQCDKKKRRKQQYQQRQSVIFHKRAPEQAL
Experiment: Inhibitory activity against human muscarine receptor M3 (aequorin luminescence, CHO cells, acetylcholine challenge)
Type: cell-based
Settings: IC50 for hM3 receptor, CHO cells stably expressing hM3 and apo-Aequorin; acetylcholine chloride 112.92 nM; luminescence over 20 seconds
Method: CHO cells (PerkinElmer, ES-212-AF) that stably express human muscarine receptor M3 (hM3) and apo-Aequorin were cultured at 37° C., 5% CO2 in Ham's F12 media (Invitrogen 12500-062) containing 10% fetal bovine serum (FBS) (Gibico 10099-141), 400 μg/mL G418 (sigma G5013) and 250 μg/mL Zeocin (Invivogen ant-zn-5p), until a confluency of 90% to 100% was reached. […] The luminescence was recorded over 20 seconds, and IC50 values were calculated and analyzed by Origin 7.5.
pIC50: −log10 of the molar value.
Mark true (1) for reported pIC50 of 9 or greater; mark false (0) for anything smaller.

INSERT INTO results (compound, classification) VALUES
  ('O=C(OC1CC2(CCN(CCCn3nnc4cc(CNC[C@H](O)c5ccc(O)c6[nH]c(=O)ccc56)ccc43)CC2)C1)C(O)(c1ccccc1)C1CCCC1 (single isomer, unassigned) [Isomer 1 of Compound 4]', 'false (0)'),
  ('O=C(OC1CC2(CCN(CCCn3nnc4cc(CNC[C@H](O)c5ccc(O)c6[nH]c(=O)ccc56)ccc43)CC2)C1)C(O)(c1cccs1)C1CCCC1 (single isomer, unassigned) [Isomer 1 of Compound 9, ditrifluoroacetic acid]', 'false (0)');

Enquiry: I'd appreciate it if you could say whether O=C(OC1CC2(CCN(CCCn3nnc4cc(CNC[C@H](O)c5ccc(O)c6[nH]c(=O)ccc56)ccc43)CC2)C1)C(O)(c1cccs1)c1cccs1 [Compound 1] has pIC50 at least equal to 9.
Return: true (1)

====

biological target: human muscarine receptor M3 (hM3) (Homo sapiens, UniProt P20309); experiment: Inhibitory activity against human muscarine receptor M3 (aequorin luminescence, CHO cells, acetylcholine challenge); settings: IC50 for hM3 receptor, CHO cells stably expressing hM3 and apo-Aequorin; acetylcholine chloride 112.92 nM; luminescence over 20 seconds
Listed below: pIC50 values for each entry.
On this scale, pIC50 is minus log10 of a concentration expressed in M (mol/L).

INSERT INTO measurements (compound, endpoint_label, value) VALUES
  ('O=C(OC1CC2(CCN(CCCn3nnc4cc(CNC[C@H](O)c5ccc(O)c6[nH]c(=O)ccc56)ccc43)CC2)C1)C(O)(c1cccs1)C1CCCC1 (single isomer, unassigned) [Isomer 2 of Compound 9, ditrifluoroacetic acid]', 'pIC50', 8.56);

Turning to the following compound.
Enquiry: Record request: pIC50 value, item O=C(OC1CC2(CCN(CCCn3c(=O)sc4cc(CNC[C@H](O)c5ccc(O)c6[nH]c(=O)ccc56)ccc43)CC2)C1)C(O)(c1cccs1)c1cccs1 [Compound 7, ditrifluoroacetic acid]
Return: 8.89

====

Molecular target: human muscarine receptor M3 (hM3) (Homo sapiens, UniProt P20309)
Assay: Inhibitory activity against human muscarine receptor M3 (aequorin luminescence, CHO cells, acetylcholine challenge)
Conditions: IC50 for hM3 receptor, CHO cells stably expressing hM3 and apo-Aequorin; acetylcholine chloride 112.92 nM; luminescence over 20 seconds
Description: CHO cells (PerkinElmer, ES-212-AF) that stably express human muscarine receptor M3 (hM3) and apo-Aequorin were cultured at 37° C., 5% CO2 in Ham's F12 media (Invitrogen 12500-062) containing 10% fetal bovine serum (FBS) (Gibico 10099-141), 400 μg/mL G418 (sigma G5013) and 250 μg/mL Zeocin (Invivogen ant-zn-5p), until a confluency of 90% to 100% was reached. […] The luminescence was recorded over 20 seconds, and IC50 values were calculated and analyzed by Origin 7.5.
Decision: IC50 beneath 0.5 nM gives t; IC50 meeting or exceeding 0.5 nM gives f.

// below: answered compounds
INSERT INTO results (compound, classification) VALUES
  ('CN(CCCn1nnc2cc(CNC[C@H](O)c3ccc(O)c4[nH]c(=O)ccc34)ccc21)C(=O)CCN1CCC2(CC1)CC(OC(=O)C(O)(c1cccs1)c1cccs1)C2', 't'),
  ('O=CNc1cc([C@@H](O)CNCc2ccc3c(c2)nnn3CCCN2CCC3(CC2)CC(OC(=O)C(O)(c2cccs2)c2cccs2)C3)ccc1O', 't'),
  ('O=C(OC1CC2(CCN(CCCn3nnc4cc(CNC[C@H](O)c5ccc(O)c6[nH]c(=O)sc56)ccc43)CC2)C1)C(O)(c1cccs1)c1cccs1', 'f'),
  ('O=C(OC1CC2(CCN(CCCn3nnc4cc(CNC[C@H](O)c5ccc(O)c6[nH]c(=O)ccc56)ccc43)CC2)C1)C(O)(c1ccccc1)C1CCCC1 (stereo partly drawn) [Compound 4, ditrifluoroacetic acid]', 'f'),
  ('O=C(OC1CC2(CCN(CCCn3nnc4cc(CNC[C@H](O)c5ccc(O)c6[nH]c(=O)ccc56)ccc43)CC2)C1)C(O)(c1ccccc1)C1CCCC1 (single isomer, unassigned) [Isomer 2 of Compound 4]', 'f');

Next, consider the following compound.
Enquiry: Does the reported IC50 of the following compound sit strictly below 0.5 nM? O=C(OC1CC2(CCN(CCCn3nnc4cc(CNC[C@H](O)c5ccc(O)c(CO)c5)ccc43)CC2)C1)C(O)(c1cccs1)c1cccs1
Return: t

====

Molecular target: human β2-adrenergic receptor (hβ2) (Homo sapiens, UniProt P07550)
Construct: host or cells: CHO cells
Sequence (P07550 whole entry): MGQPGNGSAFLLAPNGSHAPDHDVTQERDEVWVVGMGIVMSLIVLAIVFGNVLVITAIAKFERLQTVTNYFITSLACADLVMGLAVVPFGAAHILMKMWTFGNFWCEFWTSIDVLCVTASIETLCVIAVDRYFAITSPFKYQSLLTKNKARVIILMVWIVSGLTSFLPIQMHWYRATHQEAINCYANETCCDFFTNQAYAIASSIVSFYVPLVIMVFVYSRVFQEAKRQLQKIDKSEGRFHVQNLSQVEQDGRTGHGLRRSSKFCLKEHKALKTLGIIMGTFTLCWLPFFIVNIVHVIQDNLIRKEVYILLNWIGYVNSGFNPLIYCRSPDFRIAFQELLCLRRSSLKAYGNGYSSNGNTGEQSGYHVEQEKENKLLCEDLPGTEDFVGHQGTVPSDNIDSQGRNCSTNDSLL
Assay: Agonist activity on human β2-adrenergic receptor (LANCE Ultra cAMP Assay, CHO cells)
Type: cell-based
Protocol: The agonist activity of the compounds of the Examples on the human adrenergic receptor was measured by the LANCE Ultra cAMP Assay. CHO cells (PerkinElmer, ES-034-AF) that stably express human adrenergic receptor (hβ2) were cultured at 37° C., 5% CO2 in MEM-alpha media (Invitrogen 12561-056) containing 10% fetal bovine serum (FBS) (Gibico 10099-141) and 250 μg/ml Zeocin (InvivoGen ant-zn-5p), until a confluency of 90% to 100% was reached. […]
ENDPOINT_LABEL: pEC50
In textbook form, pEC50 equals minus log to base ten of the concentration in mol/L.

Reference set (4 entries):
INSERT INTO results (compound_structure, endpoint_label, value) VALUES
  ('O=C1COc2c([C@@H](O)CNCc3ccc4c(c3)nnn4CCCN3CCC4(CC3)CC(OC(=O)C(O)(c3cccs3)c3cccs3)C4)ccc(O)c2N1', 'pEC50', 8.89),
  ('O=C(OC1CC2(CCN(CCCn3nnc4cc(CNC[C@H](O)c5ccc(O)c6[nH]c(=O)sc56)ccc43)CC2)C1)C(O)(c1cccs1)c1cccs1', 'pEC50', 9.33),
  ('O=C(OC1CC2(CCN(CCCn3c(=O)oc4cc(CNC[C@H](O)c5ccc(O)c6[nH]c(=O)ccc56)ccc43)CC2)C1)C(O)(c1cccs1)c1cccs1', 'pEC50', 8.21),
  ('O=C(OC1CC2(CCN(CCCn3nnc4cc(CNC[C@H](O)c5ccc(O)c6[nH]c(=O)ccc56)ccc43)CC2)C1)C(O)(c1cccs1)c1cccs1', 'pEC50', 8.35);

Enquiry: Give the reported pEC50 for O=C(OC1CC2(CCN(CCCn3c(=O)sc4cc(CNC[C@H](O)c5ccc(O)c6[nH]c(=O)ccc56)ccc43)CC2)C1)C(O)(c1cccs1)c1cccs1 (system: human β2-adrenergic receptor (hβ2) (Homo sapiens, UniProt P07550)).
Return: 8.40
